- EXPERIMENTAL TARGET: T1, IL4R-mFc (human IL-4R extracellular domain fused to murine IgG2a Fc) (human (Homo sapiens))
- T1 construct: also called antigen IL4R-mFc
- T1 sequence (chain, as listed by the source): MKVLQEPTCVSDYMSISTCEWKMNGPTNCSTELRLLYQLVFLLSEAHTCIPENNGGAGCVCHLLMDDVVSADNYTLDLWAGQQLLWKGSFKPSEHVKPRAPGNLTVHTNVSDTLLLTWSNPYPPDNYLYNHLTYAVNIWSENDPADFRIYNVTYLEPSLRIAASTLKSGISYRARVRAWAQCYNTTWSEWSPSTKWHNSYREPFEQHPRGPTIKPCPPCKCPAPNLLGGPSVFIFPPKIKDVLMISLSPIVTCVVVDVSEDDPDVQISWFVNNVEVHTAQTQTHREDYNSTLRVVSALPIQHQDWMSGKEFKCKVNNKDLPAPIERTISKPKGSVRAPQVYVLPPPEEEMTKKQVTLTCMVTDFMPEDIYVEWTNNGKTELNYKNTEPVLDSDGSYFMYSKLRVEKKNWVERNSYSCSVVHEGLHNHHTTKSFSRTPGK
- PROTOCOL DESCRIPTION: blocking ELISA: antibody gradient with IL4-his at a fixed concentration on coated IL4R-mFc; bound IL4-his detected with HRP-mouse-anti-his IgG
RECORDED ENDPOINT: IC50 (read off the curve)

[Q] Given L28F8-IgG4 (antibody, V domains shown, also called S1E6 light chain mutant L28F8) VH: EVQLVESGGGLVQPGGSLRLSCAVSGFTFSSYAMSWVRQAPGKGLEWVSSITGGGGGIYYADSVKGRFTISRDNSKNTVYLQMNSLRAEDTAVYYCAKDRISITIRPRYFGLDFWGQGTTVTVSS VL: DIVMTQSPLSLPVTPGEPASISCRSSQNVVYGNGYNYLDWYLQKSGQSPQLLIYLGTNVAAGVPDRFSGSGSGTDFTLKISRVEAEDVGFYYCMQSLQAPYTFGQGTKLEIKR , state its recorded IC50 (read off the curve).
[A] ~10 nM
